System: Sapajus apella
Assay: Iron clearing efficiency in bile duct cannulated Cebus apella assessed as clearance of iron in urine at 75 umol/kg, sc […] relative to control
Assay type: functional
Can you tell me Activity for the items I'm about to list?
Numbers only, in %.

Past entries and their recorded results:
> print(dat)
                                     smiles  quantitative.result
1  C[C@]1(C(=O)[O-])CSC(c2ccc(OCCOCC(=O)O)cc2O)=N1.[Na+]                   16
2  C[C@]1(C(=O)[O-])CSC(c2ccc(OCCCCCC(=O)O)cc2O)=N1.[Na+]                   31
3  C[C@]1(C(=O)[O-])CSC(c2ccc(OCC(=O)O)cc2O)=N1.[Na+]                   47

// below: Activity requested for another compound
For the compound shown here, C[C@]1(C(=O)[O-])CSC(c2ccc(OCCCC(=O)O)cc2O)=N1.[Na+] , give the reported Activity.
22
